Test: Photostability, percentage remaining undegraded under illumination or in the dark
Conditions: percentage remaining undegraded after 4 hours illumination
# strict inequality: Photostability 4 hours < 80% yields true (1), everything else yields false (0)

The following compounds have reported results that may help.
{"input.smiles": "Cc1cc2cc(N3CC[C@@]4(O)C(=O)c5cc(F)c(C)cc5N=C34)ccc2o1", "class.label": "true (1)"}
{"input.smiles": "Cc1cc2c(cc1C)C(=O)[C@]1(O)CCN(c3ccc(C#N)c(C)c3)C1=N2", "class.label": "false (0)"}
{"input.smiles": "Cc1cc2c(cc1C)C(=O)[C@]1(O)CCN(c3cnc4c(c3)CCCC4)C1=N2", "class.label": "true (1)"}

Query: Regarding Cc1sc2c(c1C)C(=O)[C@]1(O)CCN(c3ccc(C#N)c(Cl)c3)C1=N2 , kindly confirm whether its Photostability 4 hours is beneath 80%.
Response: false (0)

Query: Lab note: Photostability 4 hours threshold 80%. Does this compound come in strictly under it? Cc1ccc2c(c1)C(=O)[C@]1(O)CCN(c3ccc(C#N)c(Cl)c3)C1=N2
Response: false (0)

Query: Answer whether the compound Cc1cc2c(cc1C)C(=O)[C@]1(O)CCN(c3ccc4ccoc4c3)C1=N2 has Photostability 4 hours strictly less than 80%
Response: true (1)

Query: Bench note: check whether Cc1cc2c(cc1C)C(=O)[C@]1(O)CCN(c3cnc(C#N)c(C)c3)C1=N2 shows Photostability 4 hours below 80%
Response: false (0)

Query: Below 80% on Photostability 4 hours? Entry Cc1cc2c(cc1C(F)(F)F)N=C1N(c3ccc4ccoc4c3)CC[C@@]1(O)C2=O
Response: false (0)

====

Molecular target: Rabbit skeletal myosin
Test: Skeletal muscle myosin II actin-activated ATPase assay
Details: 20 nM skeletal muscle myosin II; read-out: SKMMII KI
Heads up, the class ranges for Ki are low end = under 1 µM, middle = from 1 µM up to 4 µM, high end = 4 µM and over

Worked cases, answers included:
{"molecule": "Cc1cc2c(cc1F)C(=O)[C@]1(O)CCN(c3ccc4ncccc4c3)C1=N2", "tested.on": "Rabbit skeletal myosin", "class.label": "middle"}
{"molecule": "Cc1ccc2c(c1)C(=O)[C@]1(O)CCN(c3ccc4nccnc4c3)C1=N2", "tested.on": "Rabbit skeletal myosin", "class.label": "high end"}
{"molecule": "O=C1c2cc(Cl)ccc2N=C2N(c3ccc4sccc4c3)CC[C@@]12O", "tested.on": "Rabbit skeletal myosin", "class.label": "high end"}
{"molecule": "N#Cc1ccc(N2CC[C@@]3(O)C(=O)c4c(sc5c4CCCC5)N=C23)cc1", "tested.on": "Rabbit skeletal myosin", "class.label": "high end"}
{"molecule": "Cc1ccc2c(c1)C(=O)[C@]1(O)CCN(c3ccc(CO)c(Cl)c3)C1=N2", "tested.on": "Rabbit skeletal myosin", "class.label": "high end"}
{"molecule": "Cc1ccc2c(c1)C(=O)[C@]1(O)CCN(c3cc4ncccc4s3)C1=N2", "tested.on": "Rabbit skeletal myosin", "class.label": "middle"}
{"molecule": "O=C1c2cc(Cl)c(Cl)cc2N=C2N(c3ccccc3)CC[C@@]12O", "tested.on": "Rabbit skeletal myosin", "class.label": "middle"}
{"molecule": "Cc1cc2c(cc1C)C(=O)[C@]1(O)CCN(c3ccc4ncsc4c3)C1=N2", "tested.on": "Rabbit skeletal myosin", "class.label": "high end"}

Query: Exercise: read the entry Cc1cc2c(cc1F)C(=O)[C@]1(O)CCN(c3ccc4ccoc4c3)C1=N2 and state which class it falls under.
Response: middle

Query: Just checking, what class would you give Cc1cc2c(cc1C)C(=O)[C@]1(O)CCN(c3ccc4nnsc4c3)C1=N2 here?
Response: high end

====

Target: Rabbit skeletal myosin
Assay: Skeletal muscle myosin II actin-activated ATPase assay
Conditions: 20 nM skeletal muscle myosin II; read-out: SKMMII KI
pKi: −log10 of the molar value.
pKi below 5 gives not fulfilled; pKi at or above it gives fulfilled.

{"input.smiles": "Cc1ccc2c(c1)C(=O)[C@]1(O)CCN(c3ccc4cccnc4c3)C1=N2", "class.label": "fulfilled"}
{"input.smiles": "Cc1cc2c(cc1C(F)(F)F)N=C1N(c3ccccc3)CC[C@@]1(O)C2=O", "class.label": "fulfilled"}
{"input.smiles": "Cc1cc2c(cc1C)C(=O)[C@]1(O)CCN(c3cnc4c(c3)CCCC4)C1=N2", "class.label": "fulfilled"}
{"input.smiles": "Cc1ncc(N2CC[C@@]3(O)C(=O)c4cc(F)c(C(F)(F)F)cc4N=C23)s1", "class.label": "fulfilled"}
{"input.smiles": "CCc1cc2c(s1)N=C1N(c3ccc(C#N)c(C)c3)CC[C@@]1(O)C2=O", "class.label": "not fulfilled"}

Query: Reported pKi at or above 5? Cc1cc2c(s1)N=C1N(c3cccc(Br)c3)CC[C@@]1(O)C2=O
Response: not fulfilled

Query: Hi, just wondering whether Cc1cc2c(cc1C)C(=O)[C@]1(O)CCN(c3cccc(Cl)c3)C1=N2 shows pKi of 5 or higher.
Response: not fulfilled

====

Test: Photostability, percentage remaining undegraded under illumination or in the dark
Conditions: percentage remaining undegraded after 24 hours illumination
readout.type: Photostability 24 hours (%)
Enter your answer as a number in %; do not include the unit.

See these solved cases before continuing.
{"compound": "Cc1cc2c(cc1C)C(=O)[C@]1(O)CCN(c3ccc4c(c3)NCCS4)C1=N2 [BPN-0028922]", "readout.type": "Photostability 24 hours", "result.number": 27.7}
{"compound": "Cc1cc2c(s1)N=C1N(c3cccc(Br)c3)CC[C@@]1(O)C2=O [BPN-0026624]", "readout.type": "Photostability 24 hours", "result.number": 88.2}
{"compound": "Cc1ccc2c(c1)C(=O)[C@]1(O)CCN(c3ccc4ncc(C)cc4c3)C1=N2 [BPN-0027160]", "readout.type": "Photostability 24 hours", "result.number": 73.0}

Query: Data request, read-out Photostability 24 hours, for COc1ccc2cc(N3CC[C@@]4(O)C(=O)c5cc(C)c(C)cc5N=C34)ccc2n1 [BPN-0027250]
Response: 2.7

Query: Fill in the blank: the reported Photostability 24 hours of Cc1ccc(N2CC[C@@]3(O)C(=O)c4cc(C)c(C(F)(F)F)cc4N=C23)cc1 [BPN-0026819] is ____.
Response: 84.8

Query: Value lookup for Photostability 24 hours; key = Cc1ccc2c(c1)C(=O)[C@]1(O)CCN(c3ccc(C#N)c(C)c3)C1=N2 [BPN-0026324]
Response: 90.4

Query: Look up Photostability 24 hours: Cc1cc2c(cc1F)C(=O)[C@]1(O)CCN(c3ccc(C)c(Cl)c3)C1=N2 [BPN-0026606]
Response: 4.1

Query: Please look up its Photostability 24 hours: CCc1cc2c(s1)N=C1N(c3ccc(C#N)cc3)CC[C@@]1(O)C2=O [BPN-0027038]
Response: 98.7

Query: What does the record list as Photostability 24 hours for Cc1cc2c(cc1C)C(=O)[C@]1(O)CCN(c3ccc(C#N)c(C)c3)C1=N2 [BPN-0026661] ?
Response: 65.4

Query: Consider the compound shown here: Cc1sc2c(c1C)C(=O)[C@]1(O)CCN(c3ccc4ncccc4c3)C1=N2 [BPN-0027376] What is its recorded Photostability 24 hours?
Response: 2.8

Query: Fill in: Photostability 24 hours of Cc1cc2c(cc1C)C(=O)[C@]1(O)CCN(c3ccc4ncc(CO)cc4c3)C1=N2 [BPN-0028736] is ___
Response: 2

Query: Please give the measured Photostability 24 hours for this compound: Cc1ccc2c(c1)C(=O)[C@]1(O)CCN(c3ccc(CO)c(Cl)c3)C1=N2 [BPN-0027163]
Response: 44.6

Query: So what does the record say about Photostability 24 hours for Cc1cc2c(cc1C)C(=O)[C@]1(O)CCN(c3ccc4nc(CN(C)C)ccc4c3)C1=N2 [BPN-0028897] ?
Response: 5.4

Query: What does the data say about its Photostability 24 hours? Entry: Cc1ccc(N2CC[C@@]3(O)C(=O)c4cc(C)c(C)cc4N=C23)cc1 [BPN-0026663]
Response: 2.0

====

Assay: Photostability, percentage remaining undegraded under illumination or in the dark
Details: percentage remaining undegraded after 4 hours illumination
readout.type: Photostability 4 hours (%)
Entry rule: numbers only, all in %.

# count of solved cases: 5
{"compound": "Cc1ccc2c(c1)C(=O)[C@]1(O)CCN(c3ccc(C#N)c(C)c3)C1=N2", "Photostability 4 hours / %": 98.5}
{"compound": "Cc1cc2c(cc1F)C(=O)[C@]1(O)CCN(c3cccs3)C1=N2", "Photostability 4 hours / %": 88.2}
{"compound": "Cc1cc2c(cc1C)C(=O)[C@]1(O)CCN(c3ccc4oc(CO)cc4c3)C1=N2", "Photostability 4 hours / %": 4.7}
{"compound": "COc1cc(N2CC[C@@]3(O)C(=O)c4cc(C)c(C)cc4N=C23)ccn1", "Photostability 4 hours / %": 98.7}
{"compound": "Cc1cc2c(cc1F)C(=O)[C@]1(O)CCN(c3ccccc3)C1=N2 [BPN-0026387]", "Photostability 4 hours / %": 85.2}

Query: Given the entry Cc1cc2c(cc1C)C(=O)[C@]1(O)CCN(c3ccc4c(c3)OCCN4)C1=N2 , report its measured Photostability 4 hours.
Response: 87.7

Query: May I ask what Photostability 4 hours has been recorded for Cc1cc2c(cc1C)C(=O)[C@]1(O)CCN(c3ccc4c(c3)NCCO4)C1=N2 ?
Response: 92.7

Query: What does the record list as Photostability 4 hours for Cc1ccc2c(c1)C(=O)[C@]1(O)CCN(c3ccc4nc(C#N)ccc4c3)C1=N2 ?
Response: 95.2

Query: Can you share its Photostability 4 hours? I mean this compound: O=C1c2cc(Cl)c(Cl)cc2N=C2N(c3ccccc3)CC[C@@]12O
Response: 64.0

Query: May I ask what Photostability 4 hours has been recorded for Cc1ccc2c(c1)C(=O)[C@]1(O)CCN(c3ccc4ccncc4c3)C1=N2 ?
Response: 92.7
